Sourced from patent US7538106B2

target: M1 (h) (Homo sapiens); test: Binding to membrane receptors of central neuromediators of human origin: M1; settings: M1 (h) receptor binding
measure: IC50 (nM)
Report the value in nM with no unit label.

Inquiry: Which value of IC50 has been reported for CNCC(C)CN1c2ccccc2Sc2ccc(C#N)cc21 (stereo not shown) in the records?
Reply text: 21

###

biological target: 5-HT1A (h) (Homo sapiens)
Sequence (P08908 whole entry): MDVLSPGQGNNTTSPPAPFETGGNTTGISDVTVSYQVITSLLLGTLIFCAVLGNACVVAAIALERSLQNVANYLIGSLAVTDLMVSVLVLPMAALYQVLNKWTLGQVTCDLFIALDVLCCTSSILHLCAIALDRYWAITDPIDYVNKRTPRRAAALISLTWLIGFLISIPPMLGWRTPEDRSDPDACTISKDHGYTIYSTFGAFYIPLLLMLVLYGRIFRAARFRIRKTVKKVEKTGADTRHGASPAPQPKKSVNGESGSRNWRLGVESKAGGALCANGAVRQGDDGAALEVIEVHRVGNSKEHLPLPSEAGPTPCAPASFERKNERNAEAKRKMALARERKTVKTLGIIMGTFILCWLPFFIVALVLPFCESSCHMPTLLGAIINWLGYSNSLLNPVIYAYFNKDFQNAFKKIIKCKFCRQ
measure: IC50 (nM)
Number only, in nM; omit the unit.

Inquiry: Entry under review: CNCC(C)CN1c2ccccc2Sc2ccc(C#N)cc21 (stereo not shown) . Reported IC50?
Reply text: 460

###

molecular target: M1 (h) (Homo sapiens, UniProt P11229)
Sequence (P11229 whole entry): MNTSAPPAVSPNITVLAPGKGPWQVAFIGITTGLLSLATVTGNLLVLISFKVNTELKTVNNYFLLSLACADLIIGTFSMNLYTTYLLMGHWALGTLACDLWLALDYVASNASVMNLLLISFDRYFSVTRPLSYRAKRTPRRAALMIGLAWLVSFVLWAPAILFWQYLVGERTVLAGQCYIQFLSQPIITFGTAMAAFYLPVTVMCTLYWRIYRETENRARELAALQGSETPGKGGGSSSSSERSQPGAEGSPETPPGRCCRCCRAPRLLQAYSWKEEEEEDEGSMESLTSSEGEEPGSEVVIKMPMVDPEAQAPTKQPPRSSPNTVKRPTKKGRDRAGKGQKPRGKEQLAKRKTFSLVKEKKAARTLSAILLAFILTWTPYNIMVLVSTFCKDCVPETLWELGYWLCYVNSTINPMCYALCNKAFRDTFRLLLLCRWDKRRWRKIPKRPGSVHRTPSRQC
measure: pKi
// pKi: -log10(molar conc.)

Inquiry: Requested read-out: pKi. Entry: CNCC(C)CN1c2ccccc2Sc2ccc(C#N)cc21 (stereo not shown)
Reply text: 7.77
